- tgt: Heat shock factor protein 1 (Mus musculus)
- Sequence (P38532 whole entry): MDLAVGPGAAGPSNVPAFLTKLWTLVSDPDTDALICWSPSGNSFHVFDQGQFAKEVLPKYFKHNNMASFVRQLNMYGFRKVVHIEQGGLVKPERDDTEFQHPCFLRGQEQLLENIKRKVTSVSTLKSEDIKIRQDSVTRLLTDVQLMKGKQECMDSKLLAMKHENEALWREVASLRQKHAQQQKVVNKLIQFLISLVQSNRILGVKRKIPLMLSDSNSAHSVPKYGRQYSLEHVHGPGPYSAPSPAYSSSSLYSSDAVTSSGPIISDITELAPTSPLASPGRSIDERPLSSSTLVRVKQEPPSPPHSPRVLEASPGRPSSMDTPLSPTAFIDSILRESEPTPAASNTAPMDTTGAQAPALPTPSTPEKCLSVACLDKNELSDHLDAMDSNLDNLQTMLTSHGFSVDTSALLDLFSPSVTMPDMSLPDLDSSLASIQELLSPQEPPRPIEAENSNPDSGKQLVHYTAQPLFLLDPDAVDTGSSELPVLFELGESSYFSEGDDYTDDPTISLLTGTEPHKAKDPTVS
- method.description: decrease of HSF1-responsive luciferase luminescence – cell-based, NIH3T3, dose retest, confirmation (AID 2382);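 also: NIH3T3 fibroblasts with HSF1-driven luciferase reporter stressed by proteasome inhibitor MG132; luminescence from HSF1-driven luciferase expression after 8 hours of MG132 stress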
- Type: functional
Activity calls are given as the source filed them.
Item-by-item account of EC50

In plain terms, COc1ccc(C(=O)Nc2ccc(OCc3ccccc3)cc2)cc1[N+](=O)[O-] has a documented EC50 of 15.2 µM (active)

In plain terms, O=C(CSC1=NNC(c2ccccn2)S1)Nc1ccccc1 (stereo unspecified) has a documented EC50 of 3.04 µM (active)

In plain terms, OCCCNc1nccc(-c2cc(Nc3cccc(Cl)c3)ncn2)n1 has a documented EC50 of 3.8 µM (active)

In plain terms, NC(=O)CSc1nnc([C@@H](N)Cc2c[nH]c3ccccc23)o1 has a documented EC50 of > 195 µM (not active)

---

- tgt: UniProt O75030
- Sequence (O75030 whole entry): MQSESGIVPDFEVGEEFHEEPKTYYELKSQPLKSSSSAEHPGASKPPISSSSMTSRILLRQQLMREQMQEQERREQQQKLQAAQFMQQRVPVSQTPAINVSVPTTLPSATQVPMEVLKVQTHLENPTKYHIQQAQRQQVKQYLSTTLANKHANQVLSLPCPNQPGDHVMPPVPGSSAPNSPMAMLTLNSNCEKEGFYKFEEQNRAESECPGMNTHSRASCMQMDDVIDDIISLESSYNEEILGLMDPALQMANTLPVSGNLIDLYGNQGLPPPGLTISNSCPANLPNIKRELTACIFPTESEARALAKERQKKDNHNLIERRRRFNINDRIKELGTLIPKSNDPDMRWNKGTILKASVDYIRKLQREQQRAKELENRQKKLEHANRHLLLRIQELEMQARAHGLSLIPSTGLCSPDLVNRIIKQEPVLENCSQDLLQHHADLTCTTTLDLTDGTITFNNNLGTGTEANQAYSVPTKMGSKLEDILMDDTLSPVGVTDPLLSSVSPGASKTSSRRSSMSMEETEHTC
- method.description: reducers of TRPM1 reporter luminescence, concentration series – cell-based, SK-MEL-5, cherry-picked, set 3, MITF inhibitor project, dose response (AID 493073);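 also: SK-MEL-5 melanoma cells with luciferase driven by the MITF target TRPM1 promoter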
- Format: functional
Active and inactive are the calls of the source.
readout: AC50

Some molecules with recorded AC50:
O=C(CCCN1C(=O)S/C(=C\c2ccccc2)C1=O)NNC(=O)c1ccccc1O :: 33.9 µM (active)
O=C(c1ccc([N+](=O)[O-])s1)N1CCN(c2ccccn2)CC1 :: 12.2 µM (active)
CC(C)C(=O)N1CCN(c2ccc(NC(=O)c3ccc([N+](=O)[O-])o3)cc2)CC1 :: 7.98 µM (active)

Next up:
In plain terms, COc1ccccc1NC(=O)c1nc(S(=O)(=O)Cc2ccccc2)ncc1Cl has a documented AC50 of 8.91 µM (active)

---

- tgt: UniProt:P30556
- Sequence (P30556 whole entry): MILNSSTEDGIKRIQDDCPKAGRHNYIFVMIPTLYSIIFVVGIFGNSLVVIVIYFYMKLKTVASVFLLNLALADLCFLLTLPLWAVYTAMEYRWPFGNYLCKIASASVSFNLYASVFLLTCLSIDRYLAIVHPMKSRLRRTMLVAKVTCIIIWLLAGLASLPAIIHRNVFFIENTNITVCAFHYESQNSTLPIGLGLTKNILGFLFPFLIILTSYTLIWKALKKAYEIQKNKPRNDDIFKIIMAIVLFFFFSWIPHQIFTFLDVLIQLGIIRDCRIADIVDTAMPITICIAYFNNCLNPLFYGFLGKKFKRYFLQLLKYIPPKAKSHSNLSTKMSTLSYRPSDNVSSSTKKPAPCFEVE
- method.description: antagonism of angiotensin II type 1 receptor – cell-based, uHTS hits, selectivity assay for APJ receptor antagonist project, dose response (AID 463214);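 also: antagonist potency against angiotensin II stimulated AT1 response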
- Format: functional
The source made the active and inactive calls.
readout: IC50

Some compounds with recorded IC50:
O=C(NNC(=S)Nc1ccc(Cl)cc1Cl)c1ccc(N2CCOCC2)c([N+](=O)[O-])c1 :: > 40 µM (not active)
CCN(CC)S(=O)(=O)c1ccc2oc(SCC(=O)Nc3cc(C)on3)nc2c1 :: > 40 µM (not active)
CCCOc1cccc(-c2cc(C(=O)N/N=C/c3ccccn3)c3ccccc3n2)c1 :: 5.9 µM (active)
CCc1cc2c(=O)[nH]c(-c3ccccn3)nc2s1 :: 2.91 µM (active)
Cn1cccc1/C=C(/C#N)C(N)=S :: > 40 µM (not active)

In plain terms, CC(C)OC(=O)CN1C(=O)C(=O)c2ccccc21 has a documented IC50 of 5.32 µM (active)

---

- tgt: Caspase-6 (Homo sapiens, UniProt P55212)
- Sequence (P55212 whole entry): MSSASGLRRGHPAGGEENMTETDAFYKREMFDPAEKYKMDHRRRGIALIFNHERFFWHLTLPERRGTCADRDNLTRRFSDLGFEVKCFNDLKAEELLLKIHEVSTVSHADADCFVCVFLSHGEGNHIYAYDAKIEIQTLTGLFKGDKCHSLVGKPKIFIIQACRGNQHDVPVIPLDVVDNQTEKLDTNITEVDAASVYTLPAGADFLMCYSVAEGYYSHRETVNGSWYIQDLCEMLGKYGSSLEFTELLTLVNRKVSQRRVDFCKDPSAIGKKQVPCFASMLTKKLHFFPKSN
- method.description: inhibition of CASP6 peptide cleavage – biochemical, VEID-R110 fluorescence, cherry-pick, dose response (AID 720632)
The source made the active and inactive calls.
Item-by-item account of AC50

[O-][n+]1c2ccccc2[n+]([O-])c2cc(O)ccc21 :: 6.89 µM (active)

In plain terms, O=C(COC(=O)c1ccc([N+](=O)[O-])o1)Nc1ncc(Cl)cc1Cl has a documented AC50 of 28.3 µM (active)

In plain terms, CCCCC/C=C\C/C=C\C/C=C\CCCCC(=O)O has a documented AC50 of 0.505 µM (active)

In plain terms, Oc1ccc(-c2csc(Nc3cccc4ccccc34)n2)cc1O has a documented AC50 of 14.1 µM (active)

---

- method.description: luciferase reporter signal suppression in cells – H4 neuroglioma cells, luminescence, dose response (AID 1990)
- Type: functional, cell-based
The source made the active and inactive calls.
Item-by-item account of EC50

Some molecules with recorded EC50:
Cc1cc(C(=O)N/N=C/c2cc(Br)cc(Br)c2OC(=O)c2cccc(F)c2)[nH]n1 :: 8.5 µM (active)
CCOc1ccccc1NC(=O)c1nc(S(=O)(=O)Cc2cccc(C)c2)ncc1Cl :: > 120 µM (not active)
CCC(C)(C)c1ccc(Oc2ccc(N)cc2)cc1 :: < 0.1 µM (active)
Cc1ccc(C(=O)Nc2cccnc2Oc2ccc(Cl)cc2)cc1 :: 17.6 µM (active)

In plain terms, Cn1c(Cl)cnc1C1CC(=O)c2cc(Cl)ccc2O1 (stereo not given) has a documented EC50 of 10.9 µM (active)

---

Item-by-item account of IC50
- tgt: Exodeoxyribonuclease V (Escherichia coli (strain K12), UniProt P04993+P07648+P08394)
- method.description: RecBCD inhibition via phage-restricted bacterial growth – absorbance, V66 E. coli, mutant T4 phage, counter-screen for AddAB inhibitor project, dose response (AID 492957)
- Format: functional, cell-based, Escherichia coli str. K-12 substr. MG1655
Calls of active or inactive are those of the source.

Some compounds with recorded IC50:
O=C(CSC1=NNC(c2ccccn2)S1)Nc1ccccc1 (centres undefined) :: > 118 µM (inactive)
CCn1nnc(NC(=O)c2ccc([N+](=O)[O-])o2)n1 :: > 118 µM (inactive)
CC(C)C(=O)N1CCN(c2ccc(NC(=O)c3ccc([N+](=O)[O-])o3)cc2)CC1 :: > 119 µM (inactive)

Next up:
In plain terms, O=C(O)CC1SC(N/N=C/c2ccccn2)=NC1=O (centres undefined) has a documented IC50 of > 118 µM (inactive)

---

- tgt: Corticotropin-releasing factor receptor 2/Corticotropin-releasing factor-binding protein (Homo sapiens, UniProt P24387+Q13324)
- Sequence (Q13324 whole entry): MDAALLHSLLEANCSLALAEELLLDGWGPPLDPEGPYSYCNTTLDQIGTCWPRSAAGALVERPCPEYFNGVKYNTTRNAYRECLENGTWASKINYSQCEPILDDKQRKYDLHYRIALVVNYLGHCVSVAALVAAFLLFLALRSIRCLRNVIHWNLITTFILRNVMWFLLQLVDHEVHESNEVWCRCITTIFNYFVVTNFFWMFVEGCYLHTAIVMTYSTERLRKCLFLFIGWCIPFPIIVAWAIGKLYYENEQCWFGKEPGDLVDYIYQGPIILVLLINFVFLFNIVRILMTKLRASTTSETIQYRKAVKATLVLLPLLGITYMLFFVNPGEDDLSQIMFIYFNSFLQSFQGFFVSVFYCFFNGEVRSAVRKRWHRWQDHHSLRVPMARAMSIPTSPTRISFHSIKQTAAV
- Sequence (P24387 whole entry): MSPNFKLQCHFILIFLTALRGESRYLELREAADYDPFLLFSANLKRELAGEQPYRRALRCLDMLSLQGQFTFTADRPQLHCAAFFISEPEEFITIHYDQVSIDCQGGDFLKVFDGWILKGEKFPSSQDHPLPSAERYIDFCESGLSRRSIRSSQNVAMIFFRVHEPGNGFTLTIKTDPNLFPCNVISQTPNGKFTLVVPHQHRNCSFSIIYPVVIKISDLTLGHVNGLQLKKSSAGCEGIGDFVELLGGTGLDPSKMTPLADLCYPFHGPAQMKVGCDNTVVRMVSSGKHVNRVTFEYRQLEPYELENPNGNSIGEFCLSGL
- method.description: activators of CRF receptor 2 with binding protein – uHTS hits, confirmation (AID 602473)
- Format: functional
- experimental.setup: read-out: EC50_Mean
Calls of active or inactive are those of the source.
Parameter call: string, one of True (active), False (inactive)

Cc1ccc(C(=O)N2CCN(C(=O)CN3CCOCC3)C2)cc1 :: False
CC(C)CNP(=S)(c1ccccc1)C(C)(C)C (stereo unspecified) :: False
CCOc1cc(C)c(C(C)C)cc1S(=O)(=O)n1cnc(C)c1 :: False
O=C(NCCc1cn[nH]c1)C1CCC(=O)N(CCc2cccc(F)c2)C1 (stereo unspecified) :: False
Cc1ccc(SCc2noc(-c3c(C)noc3C)n2)cc1 :: False
CCOc1ccc(C(=O)Nc2ccc(Cl)cn2)cc1Cl :: False
COc1ccc(CC(=O)NC(=S)Nc2cccc(C)c2)cc1 :: True
Cc1csc(NC(=O)Cc2ccccc2[N+](=O)[O-])n1 :: False
COc1ccccc1N1CCN(C2CCCN(C(=O)c3cc(C4CC4)on3)C2)CC1 (stereo unspecified) :: False
O=C(CCSc1ccc(Br)cc1)Nc1cccnc1 :: False

Turning now to a further compound:
-- ask # outcome recorded in this test, key = Cc1c(Cl)c([N+](=O)[O-])nn1CC(=O)NC1CCCCC1
-- reply False

---

- tgt: Voltage-dependent T-type calcium channel subunit alpha-1H (Homo sapiens)
- Sequence (O95180 whole entry): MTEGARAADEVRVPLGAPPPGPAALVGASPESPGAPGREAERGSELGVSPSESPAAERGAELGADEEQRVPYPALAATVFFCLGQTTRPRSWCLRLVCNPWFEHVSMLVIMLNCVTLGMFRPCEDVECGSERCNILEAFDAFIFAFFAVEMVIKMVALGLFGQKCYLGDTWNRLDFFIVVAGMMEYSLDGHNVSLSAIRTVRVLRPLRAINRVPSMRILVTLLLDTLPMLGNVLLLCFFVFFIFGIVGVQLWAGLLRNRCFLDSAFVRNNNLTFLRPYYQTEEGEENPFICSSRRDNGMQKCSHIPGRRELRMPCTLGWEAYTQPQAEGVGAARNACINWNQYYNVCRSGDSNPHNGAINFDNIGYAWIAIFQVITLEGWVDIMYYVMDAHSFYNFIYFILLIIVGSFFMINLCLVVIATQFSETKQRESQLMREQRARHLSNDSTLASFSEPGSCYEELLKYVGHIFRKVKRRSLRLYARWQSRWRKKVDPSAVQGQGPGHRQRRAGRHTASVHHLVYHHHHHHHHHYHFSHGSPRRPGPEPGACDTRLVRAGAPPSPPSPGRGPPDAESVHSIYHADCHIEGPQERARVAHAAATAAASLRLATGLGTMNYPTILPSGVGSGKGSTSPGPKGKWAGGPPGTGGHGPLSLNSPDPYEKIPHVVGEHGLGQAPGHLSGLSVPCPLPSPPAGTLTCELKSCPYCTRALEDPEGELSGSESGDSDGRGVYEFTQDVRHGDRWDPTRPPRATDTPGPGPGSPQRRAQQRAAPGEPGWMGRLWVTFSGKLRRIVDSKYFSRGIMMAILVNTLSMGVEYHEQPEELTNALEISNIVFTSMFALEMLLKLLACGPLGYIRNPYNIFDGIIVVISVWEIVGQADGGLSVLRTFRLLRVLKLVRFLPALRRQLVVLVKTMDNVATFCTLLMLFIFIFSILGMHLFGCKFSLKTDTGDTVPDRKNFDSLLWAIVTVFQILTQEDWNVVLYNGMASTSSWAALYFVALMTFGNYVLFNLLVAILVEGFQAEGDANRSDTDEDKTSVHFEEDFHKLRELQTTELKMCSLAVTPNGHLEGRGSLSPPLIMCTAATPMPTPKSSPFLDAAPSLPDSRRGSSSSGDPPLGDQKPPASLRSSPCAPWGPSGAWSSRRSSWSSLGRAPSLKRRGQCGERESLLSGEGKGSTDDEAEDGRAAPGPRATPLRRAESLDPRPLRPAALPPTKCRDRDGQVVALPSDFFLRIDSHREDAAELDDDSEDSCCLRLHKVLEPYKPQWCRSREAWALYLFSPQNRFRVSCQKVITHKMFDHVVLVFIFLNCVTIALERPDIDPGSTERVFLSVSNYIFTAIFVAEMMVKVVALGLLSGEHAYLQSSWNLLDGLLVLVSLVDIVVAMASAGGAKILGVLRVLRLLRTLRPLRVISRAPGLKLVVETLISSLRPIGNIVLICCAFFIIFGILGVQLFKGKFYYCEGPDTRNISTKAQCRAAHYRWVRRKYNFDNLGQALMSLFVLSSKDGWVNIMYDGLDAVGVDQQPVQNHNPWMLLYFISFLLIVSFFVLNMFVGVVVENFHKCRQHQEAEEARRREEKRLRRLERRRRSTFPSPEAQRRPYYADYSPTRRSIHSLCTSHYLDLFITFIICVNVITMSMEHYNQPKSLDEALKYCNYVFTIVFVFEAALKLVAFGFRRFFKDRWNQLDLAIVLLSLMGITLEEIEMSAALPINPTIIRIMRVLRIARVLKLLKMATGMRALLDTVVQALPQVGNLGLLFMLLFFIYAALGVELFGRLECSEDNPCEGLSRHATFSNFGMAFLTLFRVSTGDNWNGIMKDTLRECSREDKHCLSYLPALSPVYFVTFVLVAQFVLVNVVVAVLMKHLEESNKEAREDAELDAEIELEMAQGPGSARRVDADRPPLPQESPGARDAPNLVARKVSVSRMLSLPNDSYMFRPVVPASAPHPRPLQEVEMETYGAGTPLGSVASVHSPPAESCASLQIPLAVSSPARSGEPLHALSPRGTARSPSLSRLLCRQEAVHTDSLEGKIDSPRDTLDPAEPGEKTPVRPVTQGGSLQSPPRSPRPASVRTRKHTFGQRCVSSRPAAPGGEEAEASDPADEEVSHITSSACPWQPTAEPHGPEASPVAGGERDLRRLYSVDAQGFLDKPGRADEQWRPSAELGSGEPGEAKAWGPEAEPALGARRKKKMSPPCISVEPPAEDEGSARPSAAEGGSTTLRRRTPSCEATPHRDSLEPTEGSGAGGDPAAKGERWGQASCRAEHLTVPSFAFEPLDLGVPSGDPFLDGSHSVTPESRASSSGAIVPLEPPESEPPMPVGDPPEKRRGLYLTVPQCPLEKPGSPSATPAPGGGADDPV
- Type: functional
The source made the active and inactive calls.
readout: EC50

Cc1ccc(C(CC(=O)NCc2ccco2)c2ccc(OC(C)C)cc2)cc1 (stereo not given) :: 15.9 µM (active)
CCSc1nc2ccccc2n1CCOc1ccccc1 :: 18.2 µM (active)
Cc1nc2c(-c3ccc(F)cc3)c(C)nn2c(C)c1CCC(=O)N1CCN(c2ccc(F)cc2)CC1 :: 5.21 µM (active)

In plain terms, O=C(Nc1cccc(NC(=O)c2ccc(-c3ccc(Br)cc3)o2)c1)c1ccccc1 has a documented EC50 of 19.1 µM (active)

In plain terms, CCN(CC)c1ccc2cc(-c3nc4ccccc4[nH]3)c(=O)oc2c1 has a documented EC50 of 0.434 µM (active)

---

- tgt: Replicative DNA helicase DnaB (Mycobacterium tuberculosis)
- Sequence (P9WMR3 whole entry): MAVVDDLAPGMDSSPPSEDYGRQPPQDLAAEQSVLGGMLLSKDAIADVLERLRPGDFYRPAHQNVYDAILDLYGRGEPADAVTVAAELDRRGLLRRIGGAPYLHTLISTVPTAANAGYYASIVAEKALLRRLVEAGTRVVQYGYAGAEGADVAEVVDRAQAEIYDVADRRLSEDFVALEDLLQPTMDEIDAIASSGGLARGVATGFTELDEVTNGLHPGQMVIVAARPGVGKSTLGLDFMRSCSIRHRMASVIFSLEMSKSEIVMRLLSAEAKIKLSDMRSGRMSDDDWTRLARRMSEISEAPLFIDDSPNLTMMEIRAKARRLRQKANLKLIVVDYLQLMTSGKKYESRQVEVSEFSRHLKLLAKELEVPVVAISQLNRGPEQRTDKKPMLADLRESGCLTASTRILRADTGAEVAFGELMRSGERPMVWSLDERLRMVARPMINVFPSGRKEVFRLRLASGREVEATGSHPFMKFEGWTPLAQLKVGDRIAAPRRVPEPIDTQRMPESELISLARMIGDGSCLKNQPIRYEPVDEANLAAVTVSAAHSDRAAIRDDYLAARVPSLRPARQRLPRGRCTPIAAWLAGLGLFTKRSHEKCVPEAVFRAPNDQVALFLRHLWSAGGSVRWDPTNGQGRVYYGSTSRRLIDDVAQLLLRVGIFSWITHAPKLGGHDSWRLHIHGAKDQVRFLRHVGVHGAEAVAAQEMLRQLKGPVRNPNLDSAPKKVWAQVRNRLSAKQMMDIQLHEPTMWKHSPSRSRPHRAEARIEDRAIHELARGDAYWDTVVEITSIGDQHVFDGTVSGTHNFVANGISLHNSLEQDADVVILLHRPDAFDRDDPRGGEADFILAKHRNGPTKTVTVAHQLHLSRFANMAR
- method.description: DnaB intein splicing inhibitors, dose response, biochemical, cell-free fluorescence (AID 449749)
- Format: functional
The source made the active and inactive calls.
Parameter call: string, one of 1 = active, -1 = inactive

COc1ccc(C2=NN(c3ccccc3)C(=O)/C2=C\c2ccc(O)c(OC)c2)cc1 :: 1
COc1ccc(-c2nnc(SC(=O)N3c4ccccc4Sc4ccccc43)o2)cc1 :: 1
CCCn1c(=O)[nH]c(=O)c2c1nc(-c1ccc(OC(F)F)c(OC)c1)n2CCOC :: -1
CC1=NC2(O)c3ccccc3C(=O)C2(O)/C1=C(/O)OC(C)C (stereo not given) :: 1

Turning now to a further compound:
-- ask # outcome recorded in this test, key = COc1ccccc1C(NC(C)=O)c1c(O)ccc2ccc(O)cc12 (stereo not given)
-- reply -1
